Details: in methyl acetate, 283.15 K
measured-endpoint: solubility (mole fraction)
Write the value as a bare number.

Requested field: solubility (mole fraction). Item: `O=C1OC(=O)[C@H]2[C@@H]1[C@@H]1C=C[C@H]2O1` 0.028

* * *

Conditions: in 1,4-dioxane, 323.15 K
measured-endpoint: solubility (mole fraction)
Write the value as a bare number.

Requested field: solubility (mole fraction). Item: `O=C1OC(=O)[C@H]2[C@@H]1[C@@H]1C=C[C@H]2O1` 0.131

* * *

Settings: in methyl acetate, 323.15 K
measured-endpoint: solubility (mole fraction)
Write the value as a bare number.

Requested field: solubility (mole fraction). Item: `O=C1OC(=O)[C@H]2[C@@H]1[C@@H]1C=C[C@H]2O1` 0.0963

* * *

Conditions: in methyl acetate, 288.15 K
measured-endpoint: solubility (mole fraction)
Write the value as a bare number.

Requested field: solubility (mole fraction). Item: `O=C1OC(=O)[C@H]2[C@@H]1[C@@H]1C=C[C@H]2O1` 0.0297

* * *

Details: in methyl acetate, 308.15 K
measured-endpoint: solubility (mole fraction)
Write the value as a bare number.

Requested field: solubility (mole fraction). Item: `O=C1OC(=O)[C@H]2[C@@H]1[C@@H]1C=C[C@H]2O1` 0.0587

* * *

Settings: in methyl acetate, 313.15 K
measured-endpoint: solubility (mole fraction)
Write the value as a bare number.

Requested field: solubility (mole fraction). Item: `O=C1OC(=O)[C@H]2[C@@H]1[C@@H]1C=C[C@H]2O1` 0.068

* * *

Conditions: in ethyl acetate, 298.15 K
measured-endpoint: solubility (mole fraction)

Requested field: solubility (mole fraction). Item: `O=C1OC(=O)[C@H]2[C@@H]1[C@@H]1C=C[C@H]2O1` 0.0274

* * *

Details: in ethanol, 313.15 K
measured-endpoint: solubility (mole fraction)
Write the value as a bare number.

Requested field: solubility (mole fraction). Item: `O=C1OC(=O)[C@H]2[C@@H]1[C@@H]1C=C[C@H]2O1` 0.00202

* * *

Conditions: in acetone, 313.15 K
measured-endpoint: solubility (mole fraction)
Write the value as a bare number.

Requested field: solubility (mole fraction). Item: `O=C1OC(=O)[C@H]2[C@@H]1[C@@H]1C=C[C@H]2O1` 0.0929

* * *

Conditions: in acetone, 293.15 K
measured-endpoint: solubility (mole fraction)
Write the value as a bare number.

Requested field: solubility (mole fraction). Item: `O=C1OC(=O)[C@H]2[C@@H]1[C@@H]1C=C[C@H]2O1` 0.0551

* * *

Details: in acetone, 288.15 K
measured-endpoint: solubility (mole fraction)
Write the value as a bare number.

Requested field: solubility (mole fraction). Item: `O=C1OC(=O)[C@H]2[C@@H]1[C@@H]1C=C[C@H]2O1` 0.0477

* * *

Settings: in acetone, 308.15 K
measured-endpoint: solubility (mole fraction)
Write the value as a bare number.

Requested field: solubility (mole fraction). Item: `O=C1OC(=O)[C@H]2[C@@H]1[C@@H]1C=C[C@H]2O1` 0.0814

* * *

Conditions: in acetone, 303.15 K
measured-endpoint: solubility (mole fraction)

Requested field: solubility (mole fraction). Item: `O=C1OC(=O)[C@H]2[C@@H]1[C@@H]1C=C[C@H]2O1` 0.0703

* * *

Details: in ethanol, 318.15 K
measured-endpoint: solubility (mole fraction)

Requested field: solubility (mole fraction). Item: `O=C1OC(=O)[C@H]2[C@@H]1[C@@H]1C=C[C@H]2O1` 0.00238
